Reference for the values: patent US8563526B2

Test system: MiaPaCa cells
TEST METHOD NOTES: MTT cell survival assay on MiaPaCa cells
Format: cell-based
CONDITION LABEL: Homo sapiens, MIA PaCa-2, 48 h, 50 μM, 48 hours, MTT, Table III; read-out: Inhibition effect on MiaPaCa-2 at 50 μM (%)
Hi, to clarify the labels: condition met covers inhibition at 50 µM from 40% upward, condition not met covers anything below 40%.

[
  {
    "COMPOUND": "NC(=O)c1nc(-c2cn(-c3cccc4ccccc34)nn2)n(COCCO)n1 [Compound 21]",
    "ANSWER LABEL": "condition not met"
  },
  {
    "COMPOUND": "NC(=O)c1nc(-c2cn(Cc3ccc4ccc5cccc6ccc3c4c56)nn2)n(COCCO)n1 [Compound 19]",
    "ANSWER LABEL": "condition met"
  },
  {
    "COMPOUND": "NC(=O)c1nc(C#Cc2ccc(C(F)(F)F)cc2)n(COCCOC(=O)c2ccccc2)n1 [Compound 15]",
    "ANSWER LABEL": "condition met"
  },
  {
    "COMPOUND": "NC(=O)c1nc(C#Cc2ccc(Br)cc2)n(COCCO)n1 [Compound 14]",
    "ANSWER LABEL": "condition met"
  },
  {
    "COMPOUND": "NC(=O)c1nc(-c2cn(Cc3ccc4ccc5cccc6ccc3c4c56)nn2)nn1COCCO [Compound 20]",
    "ANSWER LABEL": "condition not met"
  },
  {
    "COMPOUND": "Nc1ccn([C@@H]2O[C@H](CO)[C@@H](O)C2(F)F)c(=O)n1 [Gemcitabine, reference compound]",
    "ANSWER LABEL": "condition not met"
  }
]
